target entity: AKT (Homo sapiens)
Construct: Kinases are expressed as either kinase domains or full length constructs; made in house
assay procedure: Kinase inhibition assay (33P transfer), AKT
Type: biochemical
condition context: Table 2, kinase inhibition class; read-out: AKT3-1
pIC50: −log10 of the molar value.
Recorded pIC50 by entry

Example cases with answers are listed next.
compound	observed result
O=c1[nH]c2ccccc2n1-c1ncnc(Nc2cccc(S(=O)(=O)CCO)c2)n1	< 4.96
COc1ccc(Nc2nc3ccccc3n2-c2ncnc(Nc3cc(OC)c(OC)c(OC)c3)n2)cc1	< 5.05
COC(=O)Cc1cccc(Nc2ncnc(-n3c(NCc4ccc(OC)cc4)nc4ccccc43)n2)c1	< 5.04
COc1cc(Nc2ncnc(-n3c(NC4CCCc5ccccc54)nc4ccccc43)n2)cc(OC)c1OC (centres unmarked) [Compound 1043]	< 5.07
COc1cc(Nc2ncnc(-n3c(NCc4ncccc4C)nc4ccccc43)n2)cc(OC)c1OC	< 5.04

INPUT: What value of pIC50 has been recorded for this entry: COc1cc(Nc2ncnc(N(C/C=C/c3ccccc3)c3ccc(Cl)cc3)n2)cc(OC)c1OC
OUTPUT: < 5.05

INPUT: Look at this compound and give its reported pIC50. COc1cc(Nc2ncnc(N(CC(=O)OC(C)(C)C)c3ccc(Cl)cc3)n2)cc(OC)c1OC
OUTPUT: < 5.05

INPUT: Suppose we examine the compound COc1cc(Nc2nc3ccccc3n2-c2ncnc(Nc3cc(OC)c(OC)c(OC)c3)n2)cc(OC)c1 ; what pIC50 value has been reported?
OUTPUT: 5.07 to 5.18

---

# key: entry, value: IC50
target entity: c-Met (Homo sapiens, UniProt P08581)
Construct: Kinases are expressed as either kinase domains or full length constructs; made in house
Sequence (P08581 25-1390): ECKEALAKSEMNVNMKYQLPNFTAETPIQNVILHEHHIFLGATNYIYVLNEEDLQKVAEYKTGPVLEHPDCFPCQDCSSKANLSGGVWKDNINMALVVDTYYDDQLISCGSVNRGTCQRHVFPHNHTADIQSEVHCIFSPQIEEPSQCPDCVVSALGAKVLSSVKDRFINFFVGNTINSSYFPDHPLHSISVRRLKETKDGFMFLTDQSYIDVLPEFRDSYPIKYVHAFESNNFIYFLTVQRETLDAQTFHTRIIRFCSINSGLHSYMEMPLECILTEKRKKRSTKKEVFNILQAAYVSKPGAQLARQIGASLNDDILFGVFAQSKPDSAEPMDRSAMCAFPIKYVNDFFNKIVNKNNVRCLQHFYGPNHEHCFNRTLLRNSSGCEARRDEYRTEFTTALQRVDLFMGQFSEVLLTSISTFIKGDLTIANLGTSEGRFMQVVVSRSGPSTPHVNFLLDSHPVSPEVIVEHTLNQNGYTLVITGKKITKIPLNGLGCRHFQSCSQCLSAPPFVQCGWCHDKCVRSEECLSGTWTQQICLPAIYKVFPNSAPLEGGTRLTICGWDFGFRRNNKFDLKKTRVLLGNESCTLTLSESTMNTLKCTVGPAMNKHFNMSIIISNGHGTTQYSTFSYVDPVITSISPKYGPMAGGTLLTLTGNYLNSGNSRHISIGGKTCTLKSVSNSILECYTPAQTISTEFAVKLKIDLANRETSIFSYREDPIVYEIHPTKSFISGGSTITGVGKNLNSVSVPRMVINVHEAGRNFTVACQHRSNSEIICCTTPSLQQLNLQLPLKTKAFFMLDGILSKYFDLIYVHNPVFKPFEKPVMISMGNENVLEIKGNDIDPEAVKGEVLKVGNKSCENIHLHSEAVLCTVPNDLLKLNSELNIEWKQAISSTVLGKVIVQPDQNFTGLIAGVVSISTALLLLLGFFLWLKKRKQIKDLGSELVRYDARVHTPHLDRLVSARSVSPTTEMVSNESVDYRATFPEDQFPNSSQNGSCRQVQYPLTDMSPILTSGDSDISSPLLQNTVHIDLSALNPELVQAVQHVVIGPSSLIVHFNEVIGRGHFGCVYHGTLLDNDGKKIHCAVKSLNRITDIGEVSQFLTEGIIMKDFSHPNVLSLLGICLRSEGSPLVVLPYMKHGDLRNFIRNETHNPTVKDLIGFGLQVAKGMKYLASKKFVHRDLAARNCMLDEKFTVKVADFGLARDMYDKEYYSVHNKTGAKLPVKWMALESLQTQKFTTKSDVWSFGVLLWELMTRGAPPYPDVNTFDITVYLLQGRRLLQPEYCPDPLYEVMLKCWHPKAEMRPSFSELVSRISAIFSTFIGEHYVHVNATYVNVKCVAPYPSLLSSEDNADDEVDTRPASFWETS
assay procedure: Kinase inhibition assay (33P transfer), c-Met
Assay type: biochemical
condition context: Table 2, kinase inhibition class; read-out: Met-1

Some solved cases for reference:
smiles repr	observed result
COc1ccc(Nc2ncnc(NCc3c(C)cccc3Cl)n2)cc1OC	> 11.7 µM
COc1cc(Nc2ncnc(Nc3ccc(Br)c4ccccc34)n2)cc(OC)c1OC	> 9.33 µM
CCOC(=O)Cc1ccc(Nc2ncnc(Nc3cc(-c4ccco4)n[nH]3)n2)cc1	0.987 to 5.92 µM
CN(c1cccc(Cl)c1)c1ncnc(Nc2cccc(Cc3nnn[nH]3)c2)n1	< 1.02 µM
COc1ccccc1Nc1nc2ccccc2n1-c1ncnc(Nc2cc(OC)c(OC)c(OC)c2)n1	> 9.01 µM

INPUT: Need IC50 of O=c1[nH]c2ccccc2n1-c1ncnc(Nc2ccc3ncccc3c2)n1 , thanks.
OUTPUT: > 12.7 µM

INPUT: For the molecule COc1cc(Nc2ncnc(-c3cccnc3NCc3ccc(F)cc3)n2)cc(OC)c1OCCN1CCOCC1 , what IC50 is on record?
OUTPUT: > 8.01 µM

INPUT: Looking for the measured IC50 of COc1ccc(Nc2ncnc(Nc3ccc(Oc4ccccc4)cc3)n2)cc1OC , can you help?
OUTPUT: < 0.963 µM

---

target entity: AKT (Homo sapiens, UniProt Q9Y243)
Construct: Kinases are expressed as either kinase domains or full length constructs; made in house
Sequence (Q9Y243 whole entry, the tested form may be a part): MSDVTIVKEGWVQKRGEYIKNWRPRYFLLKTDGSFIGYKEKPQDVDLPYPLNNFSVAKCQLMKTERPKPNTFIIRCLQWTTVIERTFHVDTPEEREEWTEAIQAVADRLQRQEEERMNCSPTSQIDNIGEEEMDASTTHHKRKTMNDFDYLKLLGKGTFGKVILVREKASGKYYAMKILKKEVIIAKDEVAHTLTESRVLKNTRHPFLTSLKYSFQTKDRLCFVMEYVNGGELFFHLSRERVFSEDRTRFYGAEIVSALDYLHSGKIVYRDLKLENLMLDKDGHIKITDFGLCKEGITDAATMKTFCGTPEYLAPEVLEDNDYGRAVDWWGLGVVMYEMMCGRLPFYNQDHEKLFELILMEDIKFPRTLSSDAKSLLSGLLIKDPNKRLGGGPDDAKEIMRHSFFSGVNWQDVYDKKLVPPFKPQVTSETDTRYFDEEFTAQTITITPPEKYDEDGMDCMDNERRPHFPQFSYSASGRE
assay procedure: Kinase inhibition assay (33P transfer), AKT
Assay type: biochemical
condition context: Table 2, kinase inhibition class; read-out: AKT3-1
// reported IC50 for each item listed

Example entries begin here.
molecule	target entity	IC50
COc1ccc(CNc2nc3ccccc3n2-c2ncnc(Nc3cccc(Cc4nnn[nH]4)c3)n2)cc1	AKT (Homo sapiens, UniProt Q9Y243)	0.791 to 4.75 µM
C=CCNc1nc2ccccc2n1-c1ncnc(Nc2cc(OC)c(OC)c(OC)c2)n1	AKT (Homo sapiens, UniProt Q9Y243)	> 10.4 µM

INPUT: Can you share its IC50? I mean this molecule: CC(=O)Nc1ccc(Nc2ncnc(-n3c(N)nc4ccccc43)n2)cc1
OUTPUT: > 12.5 µM

INPUT: Given the entry COc1cc(Nc2ncnc(Nc3cccc(C(F)(F)F)c3)n2)cc(OC)c1OC , report its measured IC50.
OUTPUT: > 10.7 µM

INPUT: GET /values?readout=IC50&item= COc1cc(Nc2ncnc(NC(=O)NCc3ccccc3)n2)cc(OC)c1OC
OUTPUT: > 11 µM

INPUT: Item under review: COc1ccc(Nc2ncnc(Nc3cc(-c4ccccc4)n[nH]3)n2)cc1OC . Reported IC50?
OUTPUT: > 11.6 µM

INPUT: Fill in: IC50 of COc1cc(Nc2ncnc(Nc3cc(F)ccc3F)n2)cc(OC)c1OC is ___
OUTPUT: > 11.6 µM
